Numbers sourced from ChEMBL document CHEMBL3774368.

# target: D(2) dopamine receptor (Homo sapiens)
# Sequence (P14416 whole entry): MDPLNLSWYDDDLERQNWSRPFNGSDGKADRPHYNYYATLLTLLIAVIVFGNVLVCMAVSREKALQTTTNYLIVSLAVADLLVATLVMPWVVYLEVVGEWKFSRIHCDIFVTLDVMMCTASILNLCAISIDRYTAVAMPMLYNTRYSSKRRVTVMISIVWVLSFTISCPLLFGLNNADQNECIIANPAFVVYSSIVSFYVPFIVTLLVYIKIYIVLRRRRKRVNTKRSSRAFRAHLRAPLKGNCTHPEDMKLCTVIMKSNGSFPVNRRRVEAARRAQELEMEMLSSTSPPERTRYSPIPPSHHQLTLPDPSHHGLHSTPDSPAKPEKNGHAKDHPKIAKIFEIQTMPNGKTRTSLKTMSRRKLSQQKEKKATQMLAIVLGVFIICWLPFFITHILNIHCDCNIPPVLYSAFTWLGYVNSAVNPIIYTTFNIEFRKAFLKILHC
# experiment: Displacement of [3H]-spiperone from human dopamine D2 receptor expressed in CHO-K1 cell membranes after 120 mins by liquid scintillation counter method
assayEndpoint: Ki (nM)

{"molecule": "Cn1c(SCCCN2CC3CCN(c4ccc(C(F)(F)F)cc4)C3C2)nnc1C1CCCCC1 (racemic)", "Ki, nM": 6310}
{"molecule": "Cc1ncoc1-c1nnc(SCCCN2CC3CCN(c4ccccc4)C3C2)n1C (stereo in doubt; 6b)", "Ki, nM": 251}
{"molecule": "Cn1c(SCCCN2CC3CCN(c4ccc(F)cc4F)C3C2)nnc1-c1cnccn1 (stereo in doubt; 36a)", "Ki, nM": 1000}

[P] Cn1c(SCCCN2CC3CCN(c4ccc(F)cc4)C3C2)nnc1-c1ccn(C)c(=O)c1 (racemic)
[Q] Cn1c(SCCCN2CC3CCN(c4ccc(C(F)(F)F)cc4)C3C2)nnc1N1CCOCC1 (racemic)
INPUT: Could you please tell me which of these two has the higher Ki: P or Q ? Write down the label attached to your selection.
OUTPUT: P
(P: 398 nM, Q: 200 nM)

[P] Cn1c(SCCCN2CC3CCN(c4ccc(C(F)(F)F)cc4)C3C2)nnc1-c1cc[nH]c(=O)c1 (stereo in doubt; 55a)
[Q] Cn1cc(-c2nnc(SCCCN3CC4CCN(c5ccc(C(F)(F)F)cc5)C4C3)n2C)cn1 (racemic)
[R] Cc1ncoc1-c1nnc(SCCCN2CC3CCN(c4cccc(C#N)c4)C3C2)n1C (stereo in doubt; 12b)
INPUT: Ordering criterion: Ki; begin with the maximum. Put the labels in the requested order and list them out.
OUTPUT: P, R, Q
(P: 2000 nM, R: 631 nM, Q: 200 nM)

---

# experiment: in vitro
# details: human, liver microsomes, CLH
assayEndpoint: microsomal CLint at 0.5 µM (µL/min/mg)

{"compound": "Cn1c(SCCCN2CC3CCN(c4ccc(C(F)(F)F)cc4)C3C2)nnc1-c1cc[nH]c(=O)c1 (stereo in doubt; 55b)", "microsomal CLint at 0.5 µM, µL/min/mg": 33}
{"compound": "Cc1ncoc1-c1nnc(SCCCN2CC3CCN(c4ccc(F)cc4)C3C2)n1C (stereo in doubt; 9a)", "microsomal CLint at 0.5 µM, µL/min/mg": 27}

---

# target: D(2) dopamine receptor (Homo sapiens)
# experiment: Displacement of [3H]-spiperone from human dopamine D2 receptor expressed in CHO-K1 cell membranes after 120 mins by liquid scintillation counter method
pKi: −log10 of the molar value.
assayEndpoint: pKi

{"compound": "Cc1ncoc1-c1nnc(SCCCN2CC3CCN(c4ccccc4)C3C2)n1C (racemic)", "assayEndpoint": "pKi", "assayValue": 6.60}

[a] Cc1ncoc1-c1nnc(SCCCN2CC3CCN(c4ccc(F)cc4)C3C2)n1C (racemic)
[b] Cc1ncoc1-c1nnc(SCCCN2CC3CCN(c4ccc(C(F)(F)F)cc4F)C3C2)n1C (stereo in doubt; 8b)
INPUT: Could you please tell me which of these two has the higher pKi: a or b ? Write down the label attached to your selection.
OUTPUT: b
(b: 7.20, a: 6.70)

---

# target: Cytochrome P450 3A4 (Homo sapiens, UniProt P08684)
# Sequence (P08684 whole entry): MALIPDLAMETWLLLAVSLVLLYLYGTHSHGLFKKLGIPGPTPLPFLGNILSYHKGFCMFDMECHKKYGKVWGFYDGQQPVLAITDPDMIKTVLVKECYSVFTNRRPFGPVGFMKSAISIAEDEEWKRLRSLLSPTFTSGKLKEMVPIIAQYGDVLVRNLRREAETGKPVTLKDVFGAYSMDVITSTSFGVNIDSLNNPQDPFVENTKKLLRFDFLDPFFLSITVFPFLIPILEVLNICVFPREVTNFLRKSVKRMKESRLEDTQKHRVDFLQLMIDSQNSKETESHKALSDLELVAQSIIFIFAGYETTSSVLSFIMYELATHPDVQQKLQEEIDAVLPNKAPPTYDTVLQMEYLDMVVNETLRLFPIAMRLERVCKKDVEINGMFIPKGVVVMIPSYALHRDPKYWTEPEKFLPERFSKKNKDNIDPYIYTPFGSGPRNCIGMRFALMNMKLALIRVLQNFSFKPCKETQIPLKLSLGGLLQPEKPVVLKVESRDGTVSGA
# experiment: Inhibition of recombinant human CYP3A4 expressed in baculosomes preincubated for 10 mins followed by cofactor addition measured every minute for 10 mins using 7-benzyloxyquinoline as substrate by CYPEX assay
pIC50: −log10 of the molar value.
A collection of molecules and their measured pIC50

{"molecule": "Cn1c(SCCCN2CC3CCN(c4ccc(C(F)(F)F)cc4)C3C2)nnc1-c1cc[nH]c(=O)c1 (stereo in doubt; 55b)", "pIC50": "< 4.70"}

INPUT: Hello, I am looking for reported pIC50 with Cytochrome P450 3A4 (Homo sapiens, UniProt P08684) for Cc1ncoc1-c1nnc(SCCCN2CC3CCN(c4ccc(F)cc4)C3C2)n1C (stereo in doubt; 9a) . Could you help?
OUTPUT: < 5.30

INPUT: And Cn1c(SCCCN2CC3CCN(c4ccc(F)cc4F)C3C2)nnc1-c1cnccn1 (stereo in doubt; 36b) ?
OUTPUT: < 6.00

INPUT: And Cc1ncoc1-c1nnc(SCCCN2CC3CCN(c4ccc(C(F)(F)F)cc4F)C3C2)n1C (stereo in doubt; 8b) ?
OUTPUT: < 5.52

INPUT: And Cn1c(SCCCN2CC3CCN(c4ccccc4C(F)(F)F)C3C2)nnc1-c1cccnc1 (stereo in doubt; 52a) ?
OUTPUT: 6.04

INPUT: And Cn1c(SCCCN2CC3CCN(c4ccc(C(F)(F)F)cc4)C3C2)nnc1-c1cnccn1 (stereo in doubt; 17b) ?
OUTPUT: < 5.70

INPUT: And Cc1ncoc1-c1nnc(SCCCN2CC3CCN(c4ccccc4)C3C2)n1C (stereo in doubt; 6b) ?
OUTPUT: < 6.00

INPUT: And Cn1c(SCCCN2CC3CCN(c4ccccc4)C3C2)nnc1C1CCOCC1 (stereo in doubt; 62a) ?
OUTPUT: < 4.77

INPUT: And CC(C)Oc1ccccc1N1CCC2CN(CCCSc3nnc(-c4cnccn4)n3C)CC21 (stereo in doubt; 35b) ?
OUTPUT: < 6.00

---

# target: Cytochrome P450 2C19 (Homo sapiens, UniProt P33261)
# Sequence (P33261 whole entry): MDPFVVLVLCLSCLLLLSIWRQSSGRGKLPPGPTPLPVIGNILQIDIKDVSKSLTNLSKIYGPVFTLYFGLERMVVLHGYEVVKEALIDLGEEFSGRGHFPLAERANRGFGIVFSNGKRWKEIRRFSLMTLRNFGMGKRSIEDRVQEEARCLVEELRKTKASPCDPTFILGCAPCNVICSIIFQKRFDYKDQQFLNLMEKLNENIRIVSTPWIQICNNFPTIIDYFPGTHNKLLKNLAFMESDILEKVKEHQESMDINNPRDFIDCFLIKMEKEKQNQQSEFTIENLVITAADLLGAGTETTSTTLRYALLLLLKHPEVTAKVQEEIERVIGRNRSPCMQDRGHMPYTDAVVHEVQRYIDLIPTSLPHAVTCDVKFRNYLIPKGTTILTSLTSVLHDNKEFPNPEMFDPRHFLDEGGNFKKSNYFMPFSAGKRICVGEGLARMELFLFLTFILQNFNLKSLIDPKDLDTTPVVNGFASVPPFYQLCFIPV
# experiment: Inhibition of recombinant human CYP2C19 expressed in baculosomes preincubated for 10 mins followed by cofactor addition measured every minute for 10 mins using 3-butyryl-7-methoxycoumarin as substrate by CYPEX assay
pIC50: −log10 of the molar value.
assayEndpoint: pIC50

Some molecules with known pIC50 results, for comparison:
{"molecule": "Cc1ncoc1-c1nnc(SCCCN2CC3CCN(c4ccc(F)cc4)C3C2)n1C (stereo in doubt; 9a)", "pIC50": "< 5.30"}
{"molecule": "Cn1c(SCCCN2CC3CCN(c4ccccc4C(F)(F)F)C3C2)nnc1-c1cccnc1 (stereo in doubt; 52a)", "pIC50": "< 5.52"}
{"molecule": "Cn1c(SCCCN2CC3CCN(c4ccc(C(F)(F)F)cc4)C3C2)nnc1-c1cnccn1 (stereo in doubt; 17b)", "pIC50": "< 5.70"}
{"molecule": "Cn1c(SCCCN2CC3CCN(c4ccccc4)C3C2)nnc1C1CCOCC1 (stereo in doubt; 62a)", "pIC50": "< 4.77"}
{"molecule": "Cc1ncoc1-c1nnc(SCCCN2CC3CCN(c4ccc(C(F)(F)F)cc4F)C3C2)n1C (stereo in doubt; 8b)", "pIC50": "< 5.52"}

INPUT: For the molecule shown here, Cn1c(SCCCN2CC3CCN(c4ccc(C(F)(F)F)cc4)C3C2)nnc1-c1cc[nH]c(=O)c1 (stereo in doubt; 55b) , give the reported pIC50.
OUTPUT: < 4.70

INPUT: And CC(C)Oc1ccccc1N1CCC2CN(CCCSc3nnc(-c4cnccn4)n3C)CC21 (stereo in doubt; 35b) ?
OUTPUT: < 6.00

INPUT: And Cc1ncoc1-c1nnc(SCCCN2CC3CCN(c4ccccc4)C3C2)n1C (stereo in doubt; 6b) ?
OUTPUT: < 6.00

INPUT: And Cn1c(SCCCN2CC3CCN(c4ccc(F)cc4F)C3C2)nnc1-c1cnccn1 (stereo in doubt; 36b) ?
OUTPUT: < 6.00

---

A collection of compounds and their measured microsomal CLint at 0.5 µM
# experiment: in vitro
# details: rat, liver microsomes, CLH

Some compounds with known microsomal CLint at 0.5 µM results, for comparison:
{"compound": "Cn1c(SCCCN2CC3CCN(c4ccccc4C(F)(F)F)C3C2)nnc1-c1cccnc1 (stereo in doubt; 52a)", "microsomal CLint at 0.5 µM": "> 750 µL/min/mg"}
{"compound": "Cn1c(SCCCN2CC3CCN(c4ccc(F)cc4F)C3C2)nnc1-c1cnccn1 (stereo in doubt; 36b)", "microsomal CLint at 0.5 µM": "> 650 µL/min/mg"}
{"compound": "CC(C)Oc1ccccc1N1CCC2CN(CCCSc3nnc(-c4cnccn4)n3C)CC21 (stereo in doubt; 35b)", "microsomal CLint at 0.5 µM": "> 750 µL/min/mg"}

INPUT: For the compound shown here, Cn1c(SCCCN2CC3CCN(c4ccc(C(F)(F)F)cc4)C3C2)nnc1-c1cnccn1 (stereo in doubt; 17b) , give the reported microsomal CLint at 0.5 µM.
OUTPUT: > 700 µL/min/mg

---

# target: D(3) dopamine receptor (Homo sapiens)
# Sequence (P35462 whole entry): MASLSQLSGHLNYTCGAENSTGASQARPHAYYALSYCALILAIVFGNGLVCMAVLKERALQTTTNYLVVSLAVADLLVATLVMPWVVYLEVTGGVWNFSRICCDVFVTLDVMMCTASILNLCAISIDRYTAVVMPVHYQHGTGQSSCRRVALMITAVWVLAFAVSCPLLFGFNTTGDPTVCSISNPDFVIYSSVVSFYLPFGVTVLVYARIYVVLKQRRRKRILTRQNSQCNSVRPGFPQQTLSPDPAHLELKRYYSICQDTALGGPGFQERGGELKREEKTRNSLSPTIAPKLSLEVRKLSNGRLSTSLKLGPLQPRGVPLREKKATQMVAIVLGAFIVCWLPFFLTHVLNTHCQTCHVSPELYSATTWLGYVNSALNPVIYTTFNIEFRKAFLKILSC
# experiment: Displacement of [3H]-spiperone from human dopamine D3 receptor expressed in CHO-K1 cell membranes after 90 mins by liquid scintillation counter method
assayEndpoint: Ki (nM)

Some molecules with known Ki results, for comparison:
{"molecule": "Cc1ncoc1-c1nnc(SCCCN2CC3CCN(c4cc(Cl)cc(Cl)c4)C3C2)n1C (racemic)", "assayValue": 0.398}
{"molecule": "Cn1c(SCCCN2CC3CCN(c4cccc(OC(F)(F)F)c4)C3C2)nnc1-c1cnccn1 (racemic)", "assayValue": 0.316}
{"molecule": "CC(C)Oc1ccccc1N1CCC2CN(CCCSc3nnc(-c4cnccn4)n3C)CC21 (stereo in doubt; 35b)", "assayValue": 7.94}
{"molecule": "Cn1c(SCCCN2CC3CCN(c4ccc(C(F)(F)F)cc4)C3C2)nnc1-c1ccc(=O)[nH]c1 (racemic)", "assayValue": 3.98}
{"molecule": "Cn1c(SCCCN2CC3CCN(c4ccc(C(F)(F)F)cc4)C3C2)nnc1C1CCCCC1 (racemic)", "assayValue": 39.8}

[1] Cn1c(SCCCN2CC3CCN(c4ccc(C(F)(F)F)cc4)C3C2)nnc1-c1ccnnc1 (racemic)
[2] Cc1ncoc1-c1nnc(SCCCN2CC3OCCN(c4ccc(C(F)(F)F)cc4)C3C2)n1C (racemic)
[3] Cn1c(SCCCN2CC3CCN(c4ccccc4C(F)(F)F)C3C2)nnc1-c1ccccn1 (racemic)
[4] Cn1c(SCCCN2CC3CCN(c4c(F)cc(F)cc4F)C3C2)nnc1-c1cnccn1 (racemic)
INPUT: Please list these in order of increasing Ki. Thank you! Put the labels in the requested order and list them out.
OUTPUT: 4, 3, 1, 2
